Data origin: patent US12624118B2

# assay procedure: Thermal stability by differential scanning calorimetry (DSC)
# Type: physicochemical
# experimental parameters: HBS, 0.5 mg/mL; 25° C. to 100° C. at 1° C./minute
experimental endpoint: Tm (° C.) By Differential Scanning Calorimetry (DSC) (°C)
Reply numerically in °C, unit not repeated.

molecule: IgV V45C_M105C: CD58 domain 1 with V45 and M105 replaced by cysteines to form a disulfide bridge (protein) SQQIYGVVYGNVTFHCPSNVPLKEVLWKKQKDKVAELENSEFRAFSSFKNRVYLDTVSGSLTIYNLTSSDEDEYECESPNITDTMKFFLYVLESGGGGSHHHHHHHH
value: 66.8

Proceeding to the next molecule to report its Tm (° C.) By Differential Scanning Calorimetry (DSC).
Problem: Tell me the measured Tm (° C.) By Differential Scanning Calorimetry (DSC) of CD58 Full ECD: recombinant human CD58 full extracellular domain with C-terminal 8×his tag (protein, C-terminal 8xHis tag, recombinant human CD58 full extracellular domain with C-terminal 8×his tag) SQQIYGVVYGNVTFHVPSNVPLKEVLWKKQKDKVAELENSEFRAFSSFKNRVYLDTVSGSLTIYNLTSSDEDEYEMESPNITDTMKFFLYVLESLPSPTLTCALTNGSIEVQCMIPEHYNSHRGLIMYSWDCPMEQCKRNSTSIYFKMENDLPQKIQCTLSNPLFNTTSSIILTTCIPSSGHSRHRGGGGSHHHHHHHH , please.
Result: 65.0
